B1: library; a variant is named by its letters at N, in order (parent)
chain: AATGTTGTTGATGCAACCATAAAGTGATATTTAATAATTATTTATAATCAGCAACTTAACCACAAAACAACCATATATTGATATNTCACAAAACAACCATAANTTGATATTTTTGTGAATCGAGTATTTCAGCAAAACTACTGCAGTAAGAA

- Variants of: B1
- Assay Name: relative integration efficiency (T-RL orientation) vs wild-type transposon end (log2 (normalized fold change)); transposon end mutated: left end; higher = more efficient transposition
- Condition Parameters: with VchCAST RNA-guided transposition machinery (E. coli BL21(DE3) host, lacZ target)
Rule: relative integration efficiency (log2) of -0.1 or more gives condition met; anything lower gives condition not met.

Ask: Has CT A22C A23C G24T T76G A77C T78G A102C T104G a recorded relative integration efficiency (log2) greater than or equal to -0.1?
Result: condition not met

Ask: Has CG T82G A83C a recorded relative integration efficiency (log2) greater than or equal to -0.1?
Result: condition not met

Ask: Has CG T28G a recorded relative integration efficiency (log2) greater than or equal to -0.1?
Result: condition not met

Ask: Has CG T116C a recorded relative integration efficiency (log2) greater than or equal to -0.1?
Result: condition met

Ask: Has CG T31G T32G a recorded relative integration efficiency (log2) greater than or equal to -0.1?
Result: condition not met

Ask: Has CG T12A G13A T30A A77C T86G a recorded relative integration efficiency (log2) greater than or equal to -0.1?
Result: condition not met

Ask: Has CG T9C a recorded relative integration efficiency (log2) greater than or equal to -0.1?
Result: condition met

Ask: Has CG C63A A64C A65C A66C a recorded relative integration efficiency (log2) greater than or equal to -0.1?
Result: condition not met

Ask: Has CG A77G a recorded relative integration efficiency (log2) greater than or equal to -0.1?
Result: condition not met
